Experiment: Stability of sweeteners in FLEET PHOSPHO-SODA (Example 1)

- Cpd Smiles: "O=C1NS(=O)(=O)c2ccccc21"
  stability in FLEET PHOSPHO-SODA: "acceptable stability"
- Cpd Smiles: "OC[C@H]1O[C@H](O[C@]2(CCl)O[C@H](CCl)[C@@H](O)[C@@H]2O)[C@H](O)[C@@H](O)[C@H]1Cl"
  stability in FLEET PHOSPHO-SODA: "acceptable stability"
- Cpd Smiles: "CC1=CC(=O)NS(=O)(=O)O1"
  stability in FLEET PHOSPHO-SODA: "acceptable stability"
